- assayed.system: NaV1.3 (Homo sapiens, UniProt Q9NY46)
- Construct: expressed in transfected cells; host or cells: HEK293
- Sequence (Q9NY46 whole entry): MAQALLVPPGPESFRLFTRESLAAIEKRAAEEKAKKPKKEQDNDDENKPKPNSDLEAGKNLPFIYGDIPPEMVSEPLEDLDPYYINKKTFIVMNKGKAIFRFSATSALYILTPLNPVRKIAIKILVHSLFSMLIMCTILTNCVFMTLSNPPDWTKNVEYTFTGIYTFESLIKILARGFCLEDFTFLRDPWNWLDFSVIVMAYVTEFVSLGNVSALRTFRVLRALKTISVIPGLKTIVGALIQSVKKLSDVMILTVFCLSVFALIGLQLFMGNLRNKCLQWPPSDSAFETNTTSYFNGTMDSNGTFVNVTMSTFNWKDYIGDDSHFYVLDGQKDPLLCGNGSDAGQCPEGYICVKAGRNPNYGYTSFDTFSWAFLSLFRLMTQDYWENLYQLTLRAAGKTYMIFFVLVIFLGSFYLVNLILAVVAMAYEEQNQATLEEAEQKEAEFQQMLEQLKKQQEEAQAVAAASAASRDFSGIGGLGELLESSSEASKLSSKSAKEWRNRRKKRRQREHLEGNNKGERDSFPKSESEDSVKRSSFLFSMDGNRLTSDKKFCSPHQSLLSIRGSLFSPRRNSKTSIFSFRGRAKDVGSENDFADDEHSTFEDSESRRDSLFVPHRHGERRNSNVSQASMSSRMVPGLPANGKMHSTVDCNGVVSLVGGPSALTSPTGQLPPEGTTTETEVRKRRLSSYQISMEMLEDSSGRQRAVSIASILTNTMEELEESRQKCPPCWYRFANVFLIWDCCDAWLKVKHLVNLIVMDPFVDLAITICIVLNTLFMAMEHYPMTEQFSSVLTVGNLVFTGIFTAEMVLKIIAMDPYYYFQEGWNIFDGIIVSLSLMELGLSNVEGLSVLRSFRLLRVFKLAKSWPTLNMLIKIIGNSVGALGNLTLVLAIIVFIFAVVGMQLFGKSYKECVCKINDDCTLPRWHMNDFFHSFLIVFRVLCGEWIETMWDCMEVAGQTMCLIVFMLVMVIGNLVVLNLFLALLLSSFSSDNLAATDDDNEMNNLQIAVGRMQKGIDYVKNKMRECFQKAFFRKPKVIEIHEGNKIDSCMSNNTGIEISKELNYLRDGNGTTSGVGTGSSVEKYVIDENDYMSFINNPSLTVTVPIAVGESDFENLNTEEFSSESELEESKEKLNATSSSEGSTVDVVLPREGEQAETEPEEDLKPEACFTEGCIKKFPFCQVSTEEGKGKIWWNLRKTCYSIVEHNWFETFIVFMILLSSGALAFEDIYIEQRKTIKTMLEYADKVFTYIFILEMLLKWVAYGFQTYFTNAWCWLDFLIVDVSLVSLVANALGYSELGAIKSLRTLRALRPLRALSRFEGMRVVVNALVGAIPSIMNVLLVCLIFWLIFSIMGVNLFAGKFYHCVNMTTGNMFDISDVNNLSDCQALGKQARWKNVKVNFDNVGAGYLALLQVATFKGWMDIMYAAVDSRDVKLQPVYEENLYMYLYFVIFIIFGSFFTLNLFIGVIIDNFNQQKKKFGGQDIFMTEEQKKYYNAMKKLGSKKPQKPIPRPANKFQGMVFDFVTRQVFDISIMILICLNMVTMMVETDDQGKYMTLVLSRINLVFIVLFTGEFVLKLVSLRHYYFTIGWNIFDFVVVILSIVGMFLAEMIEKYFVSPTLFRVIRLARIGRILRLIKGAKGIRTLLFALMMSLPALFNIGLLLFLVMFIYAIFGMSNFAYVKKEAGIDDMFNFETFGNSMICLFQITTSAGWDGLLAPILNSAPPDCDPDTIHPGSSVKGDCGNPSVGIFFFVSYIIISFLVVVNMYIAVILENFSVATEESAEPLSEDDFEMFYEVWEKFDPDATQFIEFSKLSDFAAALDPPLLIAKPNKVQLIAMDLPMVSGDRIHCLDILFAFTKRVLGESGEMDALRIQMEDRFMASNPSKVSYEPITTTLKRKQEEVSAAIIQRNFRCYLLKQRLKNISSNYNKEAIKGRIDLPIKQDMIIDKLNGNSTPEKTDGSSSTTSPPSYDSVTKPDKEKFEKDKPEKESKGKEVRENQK
- method.description: VIPR optical membrane potential assay with electrical stimulation, NaV1.3
- Type: cell-based
- settings: Table 9, NaV 1.3 receptors
measure: IC50

Below, each entry is followed by its recorded IC50 result.
COc1ccc(CN(C(=O)c2cnc(N3CCOCC3)nc2-c2ccccc2F)C2CC2)cc1
< 2 µM
COc1cccc(OC)c1-c1nc(N2CCOCC2)ncc1C(=O)N(Cc1ccccc1)C(C)C
> 10 µM

stdin: Quote IC50 reported for `CC(C)N(Cc1ccccc1)C(=O)c1cnc(N2CCSCC2)nc1-c1ccccc1F` please.
stdout: 2 to 10 µM

stdin: Quote IC50 reported for `O=C(c1cnc(N2CCSCC2)nc1-c1ccccc1F)N(Cc1ccc(C(F)(F)F)cc1)C1CC1` please.
stdout: 2 to 10 µM

stdin: Quote IC50 reported for `COc1cccc(N(C(=O)c2cnc(N3CCCCC3)nc2-c2ccccc2Cl)C2CCOCC2)c1` please.
stdout: > 10 µM

Data credit: patent US8546414B2
